target: MC4-R (Homo sapiens, UniProt P32245); construct: expressed in transfected cells; host or cells: HEK-293; assay: Competitive binding assay: inhibition of 125I-NDP-α-MSH binding to HEK-293 membranes with cloned human receptor subtype 4; conditions: Table 6; 1 μM; mean of triplicate
Sequence (P32245 whole entry): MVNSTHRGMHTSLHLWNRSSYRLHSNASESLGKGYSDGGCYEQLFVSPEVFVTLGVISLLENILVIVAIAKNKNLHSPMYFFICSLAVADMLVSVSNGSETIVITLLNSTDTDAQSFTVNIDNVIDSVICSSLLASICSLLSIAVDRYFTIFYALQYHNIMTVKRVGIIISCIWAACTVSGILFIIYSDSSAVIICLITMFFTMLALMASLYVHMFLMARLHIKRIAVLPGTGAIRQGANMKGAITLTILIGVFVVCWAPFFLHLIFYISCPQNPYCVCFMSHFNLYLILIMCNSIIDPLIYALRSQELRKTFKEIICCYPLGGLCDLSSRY
Non-standard residues stand in square brackets, D forms with d. No end group written: not given here. Tic = O=C(O)[C@@H]1Cc2ccccc2CN1; Nle = CCCC[C@H](N)C(=O)O
Listed here are substances together with their documented % Inhibition of Binding hMC4-R.
Lab book: enter the figure in %, no units written.

INSERT INTO assay_data (substance, measured) VALUES
  ('NH2(CH2)6CO-Ser(Bzl)-D-Nal 2′-Arg-Trp-Cys-NH2', 96),
  ('Ac-Nle-Ala-His-D-Phe-Arg-His-Cys-NH2 ({Ac-Nle-Ala-H2N}-[dF]RHC-NH2; not fully specified; printed as Ac-Nle-Ala-His-D-Phe-Arg-His-Cys-NH2)', 1),
  ('Tic-D-Phe-Arg-Trp-Cys-NH2 ([Tic][dF]RWC-NH2; also: metal complex)', 64);

Could you now look at the following substance, please?
Exercise: I would be grateful if you could share the reported % Inhibition of Binding hMC4-R for 3′-Br Phenyl acetyl-Arg-Arg-D-Bip-Cys-Trp-NH2 .
Solution: 77

* * *

Listed here are substances together with their documented % Inhibition of Binding MC1-R.
target: MC1-R (Mus musculus, UniProt Q01727); construct: MC1-R membranes were isolated from B16—F10 mouse melanoma cells; endogenous in cells; host or cells: B16-F10 mouse melanoma cells; assay: Competitive binding assay: inhibition of 125I-NDP-α-MSH binding to membranes from B16-F10 mouse melanoma cells; conditions: Table 6; 1 μM; mean of triplicate
Sequence (Q01727 whole entry): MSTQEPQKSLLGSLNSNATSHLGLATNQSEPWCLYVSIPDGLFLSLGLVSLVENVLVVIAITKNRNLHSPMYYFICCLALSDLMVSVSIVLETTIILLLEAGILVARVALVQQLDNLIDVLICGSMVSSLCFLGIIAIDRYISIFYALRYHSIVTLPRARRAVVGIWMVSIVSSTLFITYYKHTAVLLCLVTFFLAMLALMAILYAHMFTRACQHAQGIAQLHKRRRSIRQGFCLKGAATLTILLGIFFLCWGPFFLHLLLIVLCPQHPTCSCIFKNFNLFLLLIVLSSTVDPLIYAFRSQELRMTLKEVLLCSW
Non-standard residues stand in square brackets, D forms with d. No end group written: not given here. 2Nal = N[C@@H](Cc1ccc2ccccc2c1)C(=O)O; aThr = C[C@H](O)[C@H](N)C(=O)O; Nle = CCCC[C@H](N)C(=O)O
Write the numeric value and append its unit.

Some substances with recorded % Inhibition of Binding MC1-R:
INSERT INTO measurements (substance, reported_metric, measured) VALUES
  ('Amb-D-Phe-Arg-Cys-Trp-NH2', '% Inhibition of Binding MC1-R', '39%'),
  ('Ac-Nle-Ala-His-D-Phe-Arg-His-Cys-NH2 ({Ac-Nle-Ala-H2N}-[dF]RHC-NH2; not fully specified; printed as Ac-Nle-Ala-His-D-Phe-Arg-His-Cys-NH2)', '% Inhibition of Binding MC1-R', '58%'),
  ('allo-Thr-D-Phe-Arg-Cys-Trp-NH2 ([aThr][dF]RCW-NH2; also: metal complex)', '% Inhibition of Binding MC1-R', '66%');

Exercise: Query the reported % Inhibition of Binding MC1-R for MC1-R (Mus musculus, UniProt Q01727); item: `D-Tiq-D-Phe-Arg-Cys-Trp-NH2`
Solution: 43%

Exercise: Query the reported % Inhibition of Binding MC1-R for MC1-R (Mus musculus, UniProt Q01727); item: Nal 2′-D-Phe-Arg-Trp-Cys-NH2 ([2Nal][dF]RWC-NH2; also: metal complex)
Solution: 8%

* * *

biological target: MC4-R (Homo sapiens, UniProt P32245); construct: expressed in transfected cells; host or cells: HEK-293; assay: Competitive binding assay: inhibition of 125I-NDP-α-MSH binding to HEK-293 membranes with cloned human receptor subtype 4; settings: Table 6; 1 μM; mean of triplicate
Non-standard residues stand in square brackets, D forms with d. *: point of attachment. Phenylacetyl(4-Ph) = O=C(Cc1ccc(-c2ccccc2)cc1)*; Hydrocinnamoyl = O=C(CCc1ccccc1)*; Heptanoyl = CCCCCCC(=O)*
Rule: % Inhibition of Binding hMC4-R of 80% or more gives label 1; anything lower gives label 0.

Exercise: For this substance, is measured % Inhibition of Binding hMC4-R 80% or higher? Heptanoyl-D-Phe-Arg-Trp-Cys-Lys-NH2 (Heptanoyl-[dF]RWCK-NH2; also: metallopeptide)
Solution: label 0

Exercise: For this substance, is measured % Inhibition of Binding hMC4-R 80% or higher? Ac-Nle-Ala-His-D-Phe-Arg-Nal 2′-Cys-NH2
Solution: label 1

Exercise: For this substance, is measured % Inhibition of Binding hMC4-R 80% or higher? 4′-Biphenylacetyl-D-Phe-Arg-Cys-Trp-NH2 ({Phenylacetyl(4-Ph)}-[dF]RCW-NH2; not fully specified; printed as 4′-Biphenylacetyl-D-Phe-Arg-Cys-Trp-NH2)
Solution: label 0

Exercise: For this substance, is measured % Inhibition of Binding hMC4-R 80% or higher? 3′-Phenylpropionyl-His-D-Phe-Arg-Cys-Trp-NH2 (Hydrocinnamoyl-H[dF]RCW-NH2; not fully specified; printed as 3′-Phenylpropionyl-His-D-Phe-Arg-Cys-Trp-NH2)
Solution: label 0

Exercise: For this substance, is measured % Inhibition of Binding hMC4-R 80% or higher? `NH2-(CH2)6-CO-Ser(Bzl)-D-Phe(4′-Cl)-Arg-Trp-Cys-NH2`
Solution: label 1
